All figures here come from patent US6730685B1.

- experimental_protocol: Solubility of omeprazole and omeprazole sodium in water, dichloromethane and polyethylene glycol 400
- Type: physicochemical
- test_context: organic solvent or mixture
- Description: The solubility of omeprazole (the non-ionised species) has been determined to approximately 0.1 g/l in water and approximately 100 g/l in dichloromethane at room temperature (22° C.). […] Omeprazole sodium is ionised and is therefore much more soluble in water compared with omeprazole and the opposite is applicable in the less polar solvent dichloromethane. The solubility of omeprazole (the non-ionised species) has been determined to approximately 20 g/l in polyethylene glycol 400. […]
metric_name: solubility

> print(dat)
                                   compound     result
1  COc1ccc2[nH]c([S+]([O-])Cc3ncc(C)c(OC)c3C)nc2c1 (stereo not shown)  ~20 mg/mL
